target desc: human GCG receptor (human, UniProt P47871 26-477)
Sequence (P47871 26-477): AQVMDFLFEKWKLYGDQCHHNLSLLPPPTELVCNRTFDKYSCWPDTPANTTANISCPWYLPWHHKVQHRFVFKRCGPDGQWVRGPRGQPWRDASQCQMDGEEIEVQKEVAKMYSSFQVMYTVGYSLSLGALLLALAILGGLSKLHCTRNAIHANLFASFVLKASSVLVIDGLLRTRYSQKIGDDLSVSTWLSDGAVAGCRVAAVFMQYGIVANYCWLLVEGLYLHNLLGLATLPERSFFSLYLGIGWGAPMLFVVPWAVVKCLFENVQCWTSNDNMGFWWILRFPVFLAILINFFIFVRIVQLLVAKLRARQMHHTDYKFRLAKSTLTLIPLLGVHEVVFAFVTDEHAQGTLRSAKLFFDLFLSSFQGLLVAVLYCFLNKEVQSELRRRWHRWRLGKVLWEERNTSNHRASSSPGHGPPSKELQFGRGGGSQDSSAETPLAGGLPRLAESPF
assay info: cell-based or functional assay
Positions of bridges follow the written chain, without caps; N, C: chain ends. Non-standard residues stand in square brackets, D forms with d. No end group written: not given here. *: point of attachment. Acetyl(2-(4-imidazolyl)) = O=C(Cc1c[nH]cn1)*; Aib = CC(C)(N)C(=O)O
measured endpoint: In vitro activity (%) compared with native peptide: vs Glucagon
Answers are plain numbers, in %.

Worked cases, answers included:
Y[Aib]QGTFTSDYSKCLDEKAAKEFVQWLLDHHPSSGQPPPS (bridge 16-20; not fully specified) [triple agonist of SEQ ID NO: 68] ... 8.8
Y[Aib]QGTFTSDYSKYLDECRAKEFVQWLKNGGPSSGAPPPS (bridge 16-20) [triple agonist of SEQ ID NO: 24] ... 9.3

Provide each entry's In vitro activity (%) compared with native peptide: vs Glucagon from the list below.
1. {Acetyl(2-(4-imidazolyl))}-[Aib]QGTFTSDYSKYLDEKRQKEFVQWLLNTC (bridge 15-19; not fully specified) [triple agonist of SEQ ID NO: 81]
2. H[Aib]QGTFTSDYSKCLDEKRAKEFVQWLLDHHPSSGQPPPS (bridge 16-20; not fully specified) [triple agonist of SEQ ID NO: 65]
3. H[Aib]QGTFTSDYSKYLDGQHAQCFVAWLLAGGGPSSGAPPPS (also: ring from underlined residues, positions not shown) [triple agonist of SEQ ID NO: 39]
4. Y[Aib]QGTFTSDYSKYLDEKAAKEFVQWLLDHHPSSGQPPPSC (bridge 16-20; not fully specified) [triple agonist of SEQ ID NO: 75]
5. {Acetyl(2-(4-imidazolyl))}-[Aib]QGTFTSDYSKYLDEKRQKEFVNWLLAQKC (bridge 15-19; not fully specified) [triple agonist of SEQ ID NO: 93]
6. Y[Aib]QGTFTSDYSKYLDEKRAKEFVQWLLDHCPSSGQPPPS (bridge 16-20; not fully specified) [triple agonist of SEQ ID NO: 96]
7. H[Aib]QGTFTSDYSKYLDEKRAKEFVQWLLDHHPSSGQPPPSC (bridge 16-20; not fully specified) [triple agonist of SEQ ID NO: 50]

0.3
25.2
0.53
8.5
0.3
195
50.5

Fill in the blank: the reported In vitro activity (%) compared with native peptide: vs Glucagon of H[Aib]QGTFTSDYSKYLDEKRAQEFVCWLLAQKGKKNDWKHNIT (not fully specified) [triple agonist of SEQ ID NO: 28] is ____.
1.6
